Entries and their measured IC50 follow.
Molecular target: Human TRPC6 (Homo sapiens)
Construct: expressed in transfected cells
Sequence (Q9Y210 1-931): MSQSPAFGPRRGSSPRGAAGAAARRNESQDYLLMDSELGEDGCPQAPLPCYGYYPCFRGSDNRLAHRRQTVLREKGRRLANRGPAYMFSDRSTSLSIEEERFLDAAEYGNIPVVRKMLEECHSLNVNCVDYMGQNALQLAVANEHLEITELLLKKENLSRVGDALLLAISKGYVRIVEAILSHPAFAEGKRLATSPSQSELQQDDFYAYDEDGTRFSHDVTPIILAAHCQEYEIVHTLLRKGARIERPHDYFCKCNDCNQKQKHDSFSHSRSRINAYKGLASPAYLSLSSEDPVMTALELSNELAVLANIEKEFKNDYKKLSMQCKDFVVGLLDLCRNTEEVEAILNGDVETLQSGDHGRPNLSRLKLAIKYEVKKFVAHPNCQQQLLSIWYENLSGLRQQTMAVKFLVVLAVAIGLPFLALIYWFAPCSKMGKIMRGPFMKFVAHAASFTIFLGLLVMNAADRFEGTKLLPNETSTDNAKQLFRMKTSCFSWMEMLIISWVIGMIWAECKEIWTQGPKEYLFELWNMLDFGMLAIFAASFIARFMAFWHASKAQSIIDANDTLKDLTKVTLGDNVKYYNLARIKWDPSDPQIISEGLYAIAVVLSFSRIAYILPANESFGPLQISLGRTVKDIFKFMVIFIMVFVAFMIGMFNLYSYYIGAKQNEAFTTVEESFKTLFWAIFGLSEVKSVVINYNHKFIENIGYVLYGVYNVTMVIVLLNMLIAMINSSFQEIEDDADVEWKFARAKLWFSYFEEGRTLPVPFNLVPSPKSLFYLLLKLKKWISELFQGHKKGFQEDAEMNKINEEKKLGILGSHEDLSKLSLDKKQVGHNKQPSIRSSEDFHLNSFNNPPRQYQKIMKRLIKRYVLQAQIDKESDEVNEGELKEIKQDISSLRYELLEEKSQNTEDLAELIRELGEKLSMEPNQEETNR
Test: Evaluation of TRPC6 channel inhibitory activity (1), FLIPR Calcium 5 Assay Kit, OAG stimulation (Compound Nos. 1-1293)
Assay type: cell-based
Details: Human TRPC6 stably-expressing cells, OAG 30 μM, FLIPR Calcium 5 Assay Kit; read-out: Inhibitory activity (pIC50 class) (converted)

Cc1nc(Oc2cc(C#N)ccc2-c2ccc([C@H](O)CN)cn2)cc(-c2ccccn2)n1
< 0.01 µM
Cn1nc(C2CC2)cc1Oc1cc(C#N)ccc1-n1cc2c(n1)CCNC2
> 1 µM
Cn1nc(C2CC2)cc1Oc1cc(C#N)ccc1-c1cc(C(=O)N2CCC[C@H](N)C2)cn2ccnc12
> 1 µM
Cn1nc(C2CC2)cc1Oc1cc(C#N)ccc1-c1ccc(CCN)cc1
< 0.01 µM
CCN(CC)c1cc(Oc2cc(C#N)ccc2-c2ncc(CCN)cn2)nc(C)n1
< 0.01 µM

What IC50 value was documented for this compound, CC(C)n1nc(C2CC2)cc1Oc1cc(C#N)ccc1-c1ncc(CCN)cn1 ?
0.01 to 1 µM

What IC50 value was documented for this compound, Cc1cc(Oc2nc(C#N)ccc2-c2ncc(CN)cn2)cc(-c2ccccn2)n1 ?
> 1 µM

What IC50 value was documented for this compound, Cn1nc(-c2ccccc2)cc1Oc1cc(C#N)ccc1-c1cc2c(cn1)CNCC2 ?
> 1 µM

What IC50 value was documented for this compound, Cc1cc(Oc2cc(C#N)ccc2-c2ccc(C3(CN)COC3)cn2)cc(N2CCOCC2)n1 ?
0.01 to 1 µM

What IC50 value was documented for this compound, Cc1nc(Oc2cc(C#N)ccc2-c2ccc(CCN)cc2)cc(N2CCC[C@@H]2C#N)n1 ?
< 0.01 µM

Measured values drawn from patent US20230167073A1 for this set.
